study target: NDM-1 (Klebsiella pneumoniae)
Sequence (C7C422 whole entry, looked up, species assumed): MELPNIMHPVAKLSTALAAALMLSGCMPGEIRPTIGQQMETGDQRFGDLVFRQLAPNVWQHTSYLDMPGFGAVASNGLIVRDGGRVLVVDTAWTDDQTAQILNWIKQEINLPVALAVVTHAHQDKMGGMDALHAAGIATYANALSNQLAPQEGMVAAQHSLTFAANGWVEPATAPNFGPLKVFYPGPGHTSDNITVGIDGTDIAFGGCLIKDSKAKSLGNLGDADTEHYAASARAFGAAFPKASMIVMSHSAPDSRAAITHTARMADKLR
method summary: biochemical
Assay type: biochemical
condition info: NDM-1 enzyme, CCF2-FA fluorescence assay; read-out: NDM-1 IC50
Decide using IC50 alone. Strictly below 8 nM: MET. Equal to or above 8 nM: NOT MET.

{"columns": ["chemical smiles", "label"],
 "data": [
  ["CN(C)Cc1ccc(-c2cccc(S(N)(=O)=O)c2-c2nnn[nH]2)cc1", "NOT MET"],
  ["NS(=O)(=O)c1cccc(-c2cccc3sc(Br)nc23)c1-c1nnn[nH]1", "MET"],
  ["NS(=O)(=O)c1cccc(-c2ccc(CNCCc3nc[nH]n3)cc2)c1-c1nnn[nH]1", "MET"],
  ["Cc1ccc(-c2cc(-c3ccc4c(c3)CNC4=O)cc(S(N)(=O)=O)c2-c2nn[nH]n2)cc1", "MET"],
  ["Nc1ccnc2ccc(-c3cccc(S(N)(=O)=O)c3-c3nnn[nH]3)cc12", "MET"],
  ["NS(=O)(=O)c1nncc(-c2ccc(Br)cc2)c1-c1nn[nH]n1", "NOT MET"],
  ["NS(=O)(=O)c1cccc(-c2ccc(CNCCn3nccn3)cc2)c1-c1nnn[nH]1", "MET"]
]}

Hey, just so you know, these numbers are from patent US9708336B2.
